Measurement description: Acute toxicity, guinea pig, peroral
Applied conditions: in vivo, po; Table III; guinea pig p.o.; preliminary results
For each entry below, report its LD50 value.

Name the reported LD50 value associated with the molecule O=C([O-])C1(CCCCCc2ccccc2)CO1.[Na+] (stereo not shown)
500 to 600 mg/kg

Any idea what its LD50 is? The molecule is O=C([O-])C1(CCCc2cccc(C(F)(F)F)c2)CO1.[Na+] (stereo not shown)
300 to 400 mg/kg

What value of measured LD50 is listed for O=C([O-])C1(CCCCCc2ccc(Cl)cc2)CO1.[Na+] (stereo not shown) ?
300 to 400 mg/kg

For the molecule shown here, O=C([O-])C1(CCCc2ccc(Cl)cc2)CO1.[Na+] (stereo not shown) , give the reported LD50.
500 to 600 mg/kg
